# PROTOCOL_NOTES: Pharmacokinetic profiles in dogs
# Format: in vivo
# CONDITION_PARAMETERS: plasma; Dog, iv dosing, 1 mg/kg
The following compounds are listed with their measured AUC(0-t) values.
Number in ng·h/mL, nothing else.

Request: Could you tell me which AUC(0-t) is on file for COc1ncc(-c2ccn3ncc(C#CCO)c3c2)cc1NS(=O)(=O)c1ccc(F)cc1F ?
Result: 9070

Now turn to the next compound.
Request: Could you tell me which AUC(0-t) is on file for COc1ncc(-c2ccn3ncc(C#N)c3c2)cc1NS(=O)(=O)c1ccc(F)cc1F ?
Result: 3670

====

# TESTED_ON: UniProt P48736
# Sequence (P48736 whole entry): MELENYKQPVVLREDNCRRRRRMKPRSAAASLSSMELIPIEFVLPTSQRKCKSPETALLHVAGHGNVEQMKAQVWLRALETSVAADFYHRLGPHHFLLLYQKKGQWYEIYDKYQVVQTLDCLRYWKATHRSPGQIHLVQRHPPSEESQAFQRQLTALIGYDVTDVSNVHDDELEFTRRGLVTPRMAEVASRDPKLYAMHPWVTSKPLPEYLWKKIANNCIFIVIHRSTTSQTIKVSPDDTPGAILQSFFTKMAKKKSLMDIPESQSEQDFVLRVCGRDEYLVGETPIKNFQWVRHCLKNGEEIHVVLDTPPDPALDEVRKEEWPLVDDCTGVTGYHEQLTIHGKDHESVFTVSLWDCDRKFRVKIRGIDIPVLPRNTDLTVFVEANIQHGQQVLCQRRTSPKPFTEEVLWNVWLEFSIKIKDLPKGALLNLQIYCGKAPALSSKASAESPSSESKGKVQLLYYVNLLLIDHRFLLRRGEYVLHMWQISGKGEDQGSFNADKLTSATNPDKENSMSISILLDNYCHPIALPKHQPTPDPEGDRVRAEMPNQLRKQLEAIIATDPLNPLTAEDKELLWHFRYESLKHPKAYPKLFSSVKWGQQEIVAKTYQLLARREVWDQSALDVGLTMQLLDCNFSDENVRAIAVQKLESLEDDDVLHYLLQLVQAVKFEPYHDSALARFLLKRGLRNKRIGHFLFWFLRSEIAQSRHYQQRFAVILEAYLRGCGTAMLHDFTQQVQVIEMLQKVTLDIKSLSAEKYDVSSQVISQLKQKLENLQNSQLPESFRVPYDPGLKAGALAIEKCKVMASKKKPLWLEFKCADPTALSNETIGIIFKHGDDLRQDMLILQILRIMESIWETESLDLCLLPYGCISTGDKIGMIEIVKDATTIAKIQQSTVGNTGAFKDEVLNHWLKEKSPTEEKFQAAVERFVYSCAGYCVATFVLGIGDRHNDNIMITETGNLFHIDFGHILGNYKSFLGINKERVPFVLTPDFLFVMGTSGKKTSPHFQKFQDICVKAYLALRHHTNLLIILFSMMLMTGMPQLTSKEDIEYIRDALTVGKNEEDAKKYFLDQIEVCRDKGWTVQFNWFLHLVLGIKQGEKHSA
EXPERIMENTAL_ENDPOINT: IC50 (nM)
Number in nM, nothing else.

Request: Tell me reported IC50 for COc1ncc(-c2ccn3ncc(C#CCO)c3c2)cc1NS(=O)(=O)c1ccc(F)cc1F , tested with UniProt P48736.
Result: 15

Request: Tell me reported IC50 for COc1ncc(-c2ccn3ncc(C#CC(C)O)c3n2)cc1NS(=O)(=O)c1ccc(F)cc1F (stereo not shown) , tested with UniProt P48736.
Result: 6

Request: Tell me reported IC50 for COc1ncc(-c2ccn3ncc(C#N)c3c2)cc1NS(=O)(=O)c1ccc(F)cc1F , tested with UniProt P48736.
Result: 6

Now turn to the next compound.
Request: Tell me reported IC50 for COc1ncc(-c2ccn3ncc(C#CCO)c3n2)cc1NS(=O)(=O)c1ccc(F)cc1F , tested with UniProt P48736.
Result: 6

====

# PROTOCOL_NOTES: Compound stability in rat liver microsomes
# Assay type: in vitro ADME
# CONDITION_PARAMETERS: pH 7.4; rat liver microsomes; in vivo CLint extrapolated
# Method: Human or rat liver microsomes incubations were conducted in duplicate in polypropylene tubes. […] The concentrations of compounds in the incubation mixtures of human or rat liver microsomes were determined by a LC/MS/MS method. The ranges of the linearity in the concentration range were determined for each tested compounds. […]
EXPERIMENTAL_ENDPOINT: log10 of CLint scaled at 5 μM (log10 of the value in mL/min/kg)
Please note: log10 values; quantity CLint scaled at 5 μM; unit mL/min/kg.

Field: example entries. Status: answers known.
Request: Could you tell me which log10 of CLint scaled at 5 μM is on file for CC#Cc1cnn2ccc(-c3cnc(OC)c(NS(=O)(=O)c4ccc(F)cc4F)c3)nc12 ?
Result: 1.43

Request: Could you tell me which log10 of CLint scaled at 5 μM is on file for COc1ncc(-c2ccn3ncc(C#CC(C)(C)O)c3c2)cc1NS(=O)(=O)c1ccc(F)cc1F ?
Result: 0.29

Request: Could you tell me which log10 of CLint scaled at 5 μM is on file for COc1ncc(-c2ccn3ncc(C#CCO)c3n2)cc1NS(=O)(=O)c1ccc(F)cc1F ?
Result: 1.15

Request: Could you tell me which log10 of CLint scaled at 5 μM is on file for COc1ncc(-c2ccn3ncc(C#CCO)c3c2)cc1NS(=O)(=O)c1ccc(F)cc1F ?
Result: 1.21

Request: Could you tell me which log10 of CLint scaled at 5 μM is on file for COc1ncc(-c2ccn3ncc(C#N)c3c2)cc1NS(=O)(=O)c1ccc(F)cc1F ?
Result: 0.64

Now turn to the next compound.
Request: Could you tell me which log10 of CLint scaled at 5 μM is on file for COc1ncc(-c2ccn3ncc(C#CC(C)O)c3n2)cc1NS(=O)(=O)c1ccc(F)cc1F (stereo not drawn) ?
Result: 1.06

Provenance of the data: patent US9573953B2
